# Lookup of reported kinase still bound, per cent of control keyed by entry
target: STK32A (human) (UniProt Q8WU08); experiment: KINOMEscan competition binding; details: compound 10.0 µM
Sequence (Q8WU08 whole entry, looked up): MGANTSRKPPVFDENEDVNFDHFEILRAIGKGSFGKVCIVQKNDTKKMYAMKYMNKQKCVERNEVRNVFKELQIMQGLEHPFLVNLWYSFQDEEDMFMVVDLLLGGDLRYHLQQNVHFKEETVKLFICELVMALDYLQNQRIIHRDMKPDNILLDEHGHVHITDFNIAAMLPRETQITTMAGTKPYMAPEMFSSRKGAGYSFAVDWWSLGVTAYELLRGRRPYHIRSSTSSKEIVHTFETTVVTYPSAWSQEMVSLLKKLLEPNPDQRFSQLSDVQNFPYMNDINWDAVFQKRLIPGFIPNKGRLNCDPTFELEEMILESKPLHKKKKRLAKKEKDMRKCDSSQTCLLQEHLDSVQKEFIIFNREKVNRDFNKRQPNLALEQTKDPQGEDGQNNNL
measure_name: kinase still bound, per cent of control (%)

structure: Cc1ccc(NC(=O)c2cccc(C(C)(C)C#N)c2)cc1Nc1ccc2ncn(C)c(=O)c2c1
subject_of_test: STK32A (human) (UniProt Q8WU08)
unit_abbrev: %
numeric_value: 100
--
structure: CCCS(=O)(=O)Nc1ccc(F)c(C(=O)c2c[nH]c3ncc(-c4ccc(Cl)cc4)cc23)c1F
subject_of_test: STK32A (human) (UniProt Q8WU08)
unit_abbrev: %
numeric_value: 100
--
structure: O=C(NOC[C@H](O)CO)c1ccc(F)c(F)c1Nc1ccc(I)cc1F
subject_of_test: STK32A (human) (UniProt Q8WU08)
unit_abbrev: %
numeric_value: 80
--
structure: C[C@@H](Oc1cc(-n2cnc3ccc(CN4CCN(C)CC4)cc32)sc1C(N)=O)c1ccccc1C(F)(F)F
subject_of_test: STK32A (human) (UniProt Q8WU08)
unit_abbrev: %
numeric_value: 66
--
structure: Cc1cc([C@@H](C)Nc2ccccc2C(=O)O)c2nc(N3CCOCC3)cc(=O)n2c1
subject_of_test: STK32A (human) (UniProt Q8WU08)
unit_abbrev: %
numeric_value: 89
--
structure: C=CC(=O)Nc1cccc(Nc2nc(N[C@H]3CC[C@H](N(C)C)CC3)nc3c2ncn3C(C)C)c1
subject_of_test: STK32A (human) (UniProt Q8WU08)
unit_abbrev: %
numeric_value: 89
--
structure: N#Cc1c(NC(=O)c2cccc3ccccc23)sc2c1CCCC2
subject_of_test: STK32A (human) (UniProt Q8WU08)
unit_abbrev: %
numeric_value: 81
--
structure: O=C(O)c1ccc(Nc2ncc3c(n2)-c2ccc(Cl)cc2C(c2c(F)cccc2F)=NC3)cc1
subject_of_test: STK32A (human) (UniProt Q8WU08)
unit_abbrev: %
numeric_value: 54
--
structure: O=C1Nc2ccc(I)cc2/C1=C/c1cc(Br)c(O)c(Br)c1
subject_of_test: STK32A (human) (UniProt Q8WU08)
unit_abbrev: %
numeric_value: 91
--
structure: COc1cc(N2CCN(C)CC2)ccc1Nc1nc(N)c(C(=O)c2c(Cl)cccc2Cl)s1
subject_of_test: STK32A (human) (UniProt Q8WU08)
unit_abbrev: %
numeric_value: 88
--
structure: CCN1CCN(Cc2ccc(Nc3ncc4c(n3)N(C)c3ccccc3C(=O)N4C)cc2C(F)(F)F)CC1
subject_of_test: STK32A (human) (UniProt Q8WU08)
unit_abbrev: %
numeric_value: 81
--
structure: CN(C)C/C=C/C(=O)Nc1cccc(Nc2ncc3c(n2)N(C)c2ccccc2C(=O)N3C)c1
subject_of_test: STK32A (human) (UniProt Q8WU08)
unit_abbrev: %
numeric_value: 100
--
structure: O=C(NC1CC1)c1cccc(-c2ccc3c(NC(=O)C4CC4)n[nH]c3c2)c1
subject_of_test: STK32A (human) (UniProt Q8WU08)
unit_abbrev: %
numeric_value: 78
--
structure: Cc1ccc2nc(NCCN)c3ncc(C)n3c2c1
subject_of_test: STK32A (human) (UniProt Q8WU08)
unit_abbrev: %
numeric_value: 100
--
structure: C=CC(=O)Nc1cc(NC(=O)c2ccc(C)c(NC(=O)c3ccno3)c2)cc(C(F)(F)F)c1
subject_of_test: STK32A (human) (UniProt Q8WU08)
unit_abbrev: %
numeric_value: 100
--
structure: Nc1ccc(-c2ccc3ncc4ccc(=O)n(-c5cccc(C(F)(F)F)c5)c4c3c2)cn1
subject_of_test: STK32A (human) (UniProt Q8WU08)
unit_abbrev: %
numeric_value: 100
--
structure: CCC(=O)N1CCN(c2ccc(-n3c(=O)ccc4cnc5ccc(-c6cnc7ccccc7c6)cc5c43)cc2C(F)(F)F)CC1
subject_of_test: STK32A (human) (UniProt Q8WU08)
unit_abbrev: %
numeric_value: 100
--
structure: CCOc1cc2ncc(C#N)c(Nc3ccc(OCc4ccccn4)c(Cl)c3)c2cc1NC(=O)/C=C/CN(C)C
subject_of_test: STK32A (human) (UniProt Q8WU08)
unit_abbrev: %
numeric_value: 77

The values you see were collected from the kinase profiling compilation of Christmann-Franck et al. (2016).
